- System: P. falciparum stage V gametocytes
- Set-up: BacTiter-Glo ATP luminescence viability of purified stage V gametocytes in 384-well plates, per cent inhibition versus DMSO
- conditions.used: 48 h, 5 µM; inhibitor
Hit rate of the full screen: of about 13,000 compounds, about 3,200 (25%) showed an effect of 50% or more. The list shows a part of the results.
measure: % Inhibition (%)

> print(dat)
                                        mol  recorded.result
1  COc1cc(Nc2nc(N)c3cc(OC)c(OC)cc3n2)cc(OC)c1.Cl           -87.65
2  COc1cc2nc(N3CCC(CNC(=O)/C=C/c4ccccc4F)CC3)nc(N)c2cc1OC.Cl            35.62
3  COc1cc2c(cc1OC)CN(c1cc(N)c3cc(OC)c(OC)cc3n1)CC2.CS(=O)(=O)O            54.76
4                 Nc1c2ccccc2nc2ccc(Cl)cc12            93.03
5  COc1ccc(CC2(CO)CCN(Cc3ccc(O)c(Cl)c3)CC2)cc1           -47.93
6         Cl.Nc1nc(Nc2ccc(Cl)cc2)nc2ccccc12            6.388
7  Oc1ccc(-c2cc(COc3ccccc3C(F)(F)F)c(C3=CCNCC3)cc2COc2ccccc2C(F)(F)F)cc1            89.52
8  FC(F)(F)c1ccccc1OCc1cc(-c2ccncc2)c(COc2ccccc2C(F)(F)F)cc1C1=CCNCC1            112.2
